experiment: Microsomal stability, human liver microsomes (predicted hepatic clearance); conditions: predicted from in vitro microsomal stability data
parameter_measured: Predicted Hepatic Clearance (Pred. Cl.) (mL/min/kg)
Record the value in mL/min/kg, omitting the unit from your answer.

| smiles_repr | endpoint_unit | Predicted Hepatic Clearance (Pred. Cl.) |
| --- | --- | --- |
| N#Cc1ccc(COc2cccc(-c3cc(F)c(Cc4nc5ccc(C(=O)O)cc5n4C4COCCOC4)cc3F)n2)c(F)c1 | mL/min/kg | 2.67 |
| COCCn1c(Cc2cc(F)c(-c3cccc(OCc4ccc(C#N)cc4COC)n3)cc2F)nc2ccc(C(=O)O)cc21 | mL/min/kg | 2.5 |

Then there is this compound:
Q: May I ask what Predicted Hepatic Clearance (Pred. Cl.) has been recorded for `COCCn1c(Cc2ccc(-c3nnc(OCc4ccc(C#N)cc4F)s3)cc2F)nc2ccc(C(=O)O)cc21` ?
Result: 9.17

* * *

Listing of entries alongside the reported pEC50.
target: GLP-1R (Homo sapiens, UniProt P43220); assay: GLP-1R activation: cAMP increase in CHO cells stably expressing GLP-1R; format: cell-based; conditions: read-out: EC50
Sequence (P43220 24-463): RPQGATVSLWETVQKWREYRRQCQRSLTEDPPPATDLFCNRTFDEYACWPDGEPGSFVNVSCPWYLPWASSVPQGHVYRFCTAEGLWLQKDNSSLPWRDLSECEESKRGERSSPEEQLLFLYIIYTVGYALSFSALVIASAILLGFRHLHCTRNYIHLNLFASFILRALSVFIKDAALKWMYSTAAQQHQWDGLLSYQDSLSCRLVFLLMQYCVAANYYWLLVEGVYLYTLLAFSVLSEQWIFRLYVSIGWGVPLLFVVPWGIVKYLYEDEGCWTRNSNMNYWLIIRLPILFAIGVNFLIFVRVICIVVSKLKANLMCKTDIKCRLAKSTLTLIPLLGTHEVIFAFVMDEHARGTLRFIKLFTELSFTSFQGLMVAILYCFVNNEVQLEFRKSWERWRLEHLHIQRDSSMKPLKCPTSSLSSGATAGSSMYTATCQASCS
The scale used: pEC50 is minus the common logarithm of the concentration in molar units.

Completed entries (count: 5):
| molecule | pEC50 |
| --- | --- |
| N#Cc1ccc(COc2cccc(-c3cc(F)c(Cc4nc5ccc(C(=O)O)cc5n4CCN4CCOCC4)cc3F)n2)c(F)c1 | 7.62 |
| CS(=O)(=O)N1CCC[C@@H]1Cn1c(Cc2cc(F)c(-c3cccc(OCc4ccc(C#N)cc4F)n3)cc2F)nc2ccc(C(=O)O)cc21 | 8.77 |
| CC(=O)N1CC2CC1(Cn1c(Cc3cc(F)c(-c4cccc(OCc5ccc(C#N)cc5F)n4)cc3F)nc3ccc(C(=O)O)cc31)C2 | 7.85 |
| N#Cc1ccc(COc2cccc(-c3cc(F)c(Cc4nc5ccc(C(=O)O)cc5n4CCNc4ccccn4)cc3F)n2)c(F)c1 | 6.29 |
| Cc1csc(NCCn2c(Cc3cc(F)c(-c4ccnc(OCc5ccc(C#N)cc5F)n4)cc3F)nc3ccc(C(=O)O)cc32)n1 | 5.63 |

Q: Query: pEC50; subject: CC(=O)N1CC[C@@H]1Cn1c(Cc2cc(F)c(-c3cccc(OCc4ccc(C#N)cc4F)n3)cc2F)nc2ccc(C(=O)O)cc21 (single isomer, unassigned) [Example 689]
Result: 9.25

* * *

Entries and their EC50
target: GLP-1R (Homo sapiens, UniProt P43220); experiment: GLP-1R activation: cAMP increase in CHO cells stably expressing GLP-1R; assay type: cell-based; settings: cAMP increase, CHO cells stably expressing GLP-1R, 10 point dose response, 30 minutes incubation; read-out: EC50
Write your answer as a measured quantity: the number, then the unit.

Q: Missing value: EC50, GLP-1R (Homo sapiens, UniProt P43220), entry COCCn1c(Cc2cc(F)c(-c3cccc(OCc4cc(C)c(C(F)(F)F)cc4F)n3)cc2F)nc2ccc(C(=O)O)cc21 [Example 871] . Fill in?
Result: 30.8 nM

Q: GLP-1R (Homo sapiens, UniProt P43220) / EC50 / N#CCC1(Cn2c(Cc3ccc(-c4ccc(F)c(OCc5ccc(C#N)cc5F)n4)cc3F)nc3ccc(C(=O)O)cc32)CC1 [Example 162] : value?
Result: 0.17 nM

Q: Notebook: pull reported EC50 for GLP-1R (Homo sapiens, UniProt P43220), entry CC(C)(Cn1c(Cc2ccc(-c3cccc(OCc4ccc(C#N)cc4F)n3)c(F)c2)nc2ccc(C(=O)O)cc21)C(F)F [Example 295]
Result: 2.12 nM

Q: For the record N#Cc1ccc(COc2cccc(-c3cc(F)c(Cc4nc5cc(F)c(C(=O)O)cc5n4CC4(CF)CC4)cc3F)n2)c(F)c1 [Example 205] , what value of EC50 is listed for GLP-1R (Homo sapiens, UniProt P43220)?
Result: 3.23 nM

* * *

target: GLP-1R (Homo sapiens); experiment: GLP-1R activation: cAMP increase in CHO cells stably expressing GLP-1R; type: cell-based; conditions: cAMP increase, CHO cells stably expressing GLP-1R, 10 point dose response, 30 minutes incubation; read-out: EC50
Reported pEC50 values are given for each entry in this list.
Give only the number. pEC50 is defined as minus log10 of concentration in molar units.

Solved cases below.
| smiles_repr | pEC50 |
| --- | --- |
| COCCn1c(Cc2ccc(-c3cccc(OCc4ccc(C#N)cc4OCC(F)(F)F)n3)cc2F)nc2ccc(C(=O)O)cc21 | 6.51 |
| N#Cc1ccc(COc2nc(-c3cc(F)c(Cc4nc5c(F)cc(C(=O)O)cc5n4CC4(CF)CC4)cc3F)ncc2F)c(F)c1 | 9.96 |

Q: Kindly state the measured pEC50 obtained for `N#Cc1cc(F)c(COc2cccc(-c3cc(F)c(Cc4nc5ccc(C(=O)O)cc5n4C[C@@H]4CCO4)cc3F)n2)cc1F` with GLP-1R (Homo sapiens).
Result: 9.92

Q: Reported pEC50 for GLP-1R (Homo sapiens), given `CO[C@@H]1COC[C@@H]1n1c(Cc2cc(F)c(-c3cccc(OCc4ccc(C#N)cc4F)n3)cc2F)nc2ccc(C(=O)O)cc21` ?
Result: 10.10

Q: Which measured pEC50 belongs to `COCCn1c(Cc2cc(F)c(-c3cccc(OCc4ccc(C#N)cc4F)n3)cc2F)nc2cc(F)c(C(=O)O)cc21` , tested on GLP-1R (Homo sapiens)?
Result: 7.72

Q: Notebook: pull reported pEC50 for GLP-1R (Homo sapiens), entry `COCCn1c(Cc2cc(F)c(-c3ccnc(OCc4ccc(C#N)cc4F)n3)cc2F)nc2c(F)cc(C(=O)O)cc21`
Result: 9.21

Q: Test system GLP-1R (Homo sapiens); read-out pEC50; what value for `N#Cc1ccc(COc2nc(-c3cc(F)c(Cc4nc5c(F)cc(C(=O)O)cc5n4C[C@@H]4CCO4)cc3F)ncc2F)c(F)c1` ?
Result: 10.10

* * *

target: GLP-1R (Homo sapiens, UniProt P43220); experiment: GLP-1R activation: cAMP increase in CHO cells stably expressing GLP-1R; format: cell-based; settings: cAMP increase, CHO cells stably expressing GLP-1R, 10 point dose response, 30 minutes incubation; read-out: EC50
parameter_measured: pEC50
Interpret pEC50 as the negative base-10 log of the concentration measured in mol/L.

Q: Param item = COCCn1c(Cc2ccc(-c3cccc(OCc4ccc(C#N)cc4F)n3)cc2F)nc2ccc(C(=O)O)nc21 [Example 200] ; retrieve measured pEC50.
Result: 7.75

Q: Entry N#Cc1ccc(COc2cccc(-c3cc(F)c(Cc4nc5ccc(C(=O)O)cc5n4CC45CCC(CO4)C5)cc3F)n2)c(F)c1 (stereo not shown) [Example 738] has what pEC50?
Result: 8.73

Q: // query pEC50 value for entry COC1(Cn2c(Cc3cc(F)c(-c4cccc(OCc5ccc(C#N)cc5F)n4)cc3F)nc3ccc(C(=O)O)cc32)CCC1 [Example 747]
Result: 9.09

Q: May I ask what pEC50 has been recorded for N#Cc1ccc(COc2cccc(-c3cc(F)c(Cc4nc5ccc(C(=O)O)cc5n4[C@H]4CCC[C@@]45CCCO5)cc3F)n2)c(F)c1 [Example 710] ?
Result: 8.84

Q: So what does the record say about pEC50 for COCCn1c(Cc2ccc(-c3cccc(OCc4cccc(OC(F)F)c4F)n3)cc2F)nc2ccc(C(=O)O)cc21 [Example 138] ?
Result: 7.07

Q: // pEC50 lookup, key: N#Cc1ccc(COc2cccc(-c3ccc(Cc4nc5ccc(C(=O)O)cc5n4Cc4cncn4C4CC4)c(F)c3)c2)c(F)c1 [Example 8]
Result: 7.58

Q: Would you mind telling me what pEC50 value was observed for COCCn1c(Cc2ccc(-c3cccc(OCc4ccc(C(F)(F)F)cc4OC)n3)cc2F)nc2ccc(C(=O)O)cc21 [Example 459] ?
Result: 8.63

* * *

experiment: Microsomal stability, human liver microsomes (predicted hepatic clearance); details: predicted from in vitro microsomal stability data
parameter_measured: Predicted Hepatic Clearance (Pred. Cl.) (mL/min/kg)
Numeric only. Scale: mL/min/kg

Below, 5 compounds whose answers are already recorded.
| compound | endpoint_unit | test_value |
| --- | --- | --- |
| O=C(O)c1ccc2nc(Cc3ccc(-c4ccc(F)c(OCc5ccc(Cl)cc5F)c4)cc3F)n(CCO)c2c1 [Example 476] | mL/min/kg | 2.17 |
| CCn1nccc1Cn1c(Cc2ccc(-c3cccc(OCc4ccc(C#N)cc4F)n3)cc2F)nc2ccc(C(=O)O)cc21 [Example 524] | mL/min/kg | 7.17 |
| COCCn1c(Cc2ccc(-c3cccc(OCc4ccc(C#N)cc4F)n3)cc2F)nc2cc(C(=O)O)ccc21 [Example 553] | mL/min/kg | 4.17 |
| CO[C@@H]1CCCC[C@@H]1n1c(Cc2cc(F)c(-c3cccc(OCc4ccc(C#N)cc4F)n3)cc2F)nc2ccc(C(=O)O)cc21 [Example 725] | mL/min/kg | 9.5 |
| COCCn1c(Cc2cc(F)c(-c3cccc(OCc4ccc(C#N)cc4F)n3)cc2F)nc2ccc(-c3nn[nH]n3)cc21 [Example 104] | mL/min/kg | 12.7 |

Please examine the following record next.
Q: So what does the record say about Predicted Hepatic Clearance (Pred. Cl.) for Cc1cc(-c2ccc(F)c(OCc3ccc(C#N)cc3F)n2)ccc1Cc1nc2ccc(C(=O)O)cc2n1C[C@@H]1CCO1 [Example 686] ?
Result: 4
